From: patent US12435128B2

Record form. Attribute: log10 of IC50. Fill in for each entry.
- Test system: NCI-H1417 cells (human small-cell lung cancer cell lines)
- protocol details: Cell-growth inhibition test: NCI-H1417 cells
- Type: cell-based
- conditions: read-out: IC50 (nM), Cell-Growth Inhibition Test: NCI-H1417 Cells
Structures can show the parent of a compound that is named as a salt.
Answers are given as log10 of IC50 in nM.

Please fill in: log10 of IC50 reported for CCC(O)(CC)Cn1nnc2cc(-c3ccc(C(=O)N4[C@@H]5CC[C@H]4[C@@H](N)C5)cc3-c3ccc(C#N)c(F)c3)c(F)c(F)c21 (single isomer, unassigned) = -0.33

Please fill in: log10 of IC50 reported for CC(C)(O)Cn1nnc2cc(-c3ccc(CN4[C@@H]5CC[C@H]4[C@@H](N)C5)cc3-c3ccc(C#N)c(F)c3)c(F)c(F)c21.Cl.Cl (single isomer, unassigned) [Example 285, dihydrochloride] = -1.05

Please fill in: log10 of IC50 reported for CC(C)(O)Cn1ccc2cc(-c3ccc(CN4[C@@H]5CC[C@H]4[C@@H](N)C5)cc3-c3ccc(C#N)c(F)c3)c(F)cc21 (single isomer, unassigned) [Example 289, dihydrochloride] = -1.03

Please fill in: log10 of IC50 reported for CCC(O)(CC)Cn1ncc2cc(-c3ccc(C(=O)N4[C@@H]5CC[C@H]4[C@@H](N)C5)cc3-c3ccc(C#N)c(F)c3)c(F)cc21 (single isomer, unassigned) = -0.02

Please fill in: log10 of IC50 reported for CCC(O)(CC)Cn1nnc2cc(-c3ccc(C(=O)N4C5CCC4CC(N)C5)cc3-c3ccc(C#N)c(F)c3)c(F)c(Cl)c21 (stereo not drawn) = 0.01

Please fill in: log10 of IC50 reported for Cc1c(F)c(-c2ccc(C(=O)N3[C@@H]4CC[C@H]3[C@@H](N)C4)cc2-c2ccc(C#N)c(F)c2)cc2nnn(CC(C)(C)O)c12 (single isomer, unassigned) = -0.52

====

- Tested on: NCI-H1417 cells (human small-cell lung cancer cell lines)
- protocol details: Cell-growth inhibition test: NCI-H1417 cells
- Assay type: cell-based
- conditions: read-out: IC50 (nM), Cell-Growth Inhibition Test: NCI-H1417 Cells
Where a name gives a salt, the structure may show the parent alone.
Classes (IC50): lower level (below 0.6 nM), middle level (0.6 nM to below 3 nM), upper level (3 nM or more)

Quick check: band for CC(C)(O)Cn1ncc2cc(-c3ccc(CN4[C@@H]5CC[C@H]4[C@@H](N)C5)cc3-c3ccc(C#N)c(F)c3)c(F)cc21 (single isomer, unassigned) [Example 287, dihydrochloride]
lower level

Quick check: band for Cc1ccc(-c2ccc(CN3[C@@H]4CC[C@H]3[C@@H](N)C4)cc2-c2ccc(C#N)c(F)c2)c(F)c1 (single isomer, unassigned)
middle level

Quick check: band for CC(C)(O)Cn1nnc2cc(-c3ccc(C(=O)N4C5CCC4CC(N)C5)cc3-c3ccc(C#N)c(F)c3)c(F)c(C(F)F)c21 (stereo not drawn)
middle level

Quick check: band for CC(C)(O)Cn1ccc2cc(-c3ccc(C(=O)N4C5CCC4CC(N)C5)cc3-c3ccc(C#N)c(F)c3)c(F)cc21 (stereo not drawn)
middle level

Quick check: band for CCC(O)(CC)Cn1nnc2cc(-c3ccc(C(=O)N4[C@@H]5CC[C@H]4[C@@H](N)C5)cc3-c3ccc(C#N)c(F)c3)c(F)c(Cl)c21 (single isomer, unassigned)
lower level

Quick check: band for CC(C)(O)Cn1cc(C(=O)O)c2cc(-c3ccc(C(=O)N4[C@@H]5CC[C@H]4[C@@H](N)C5)cc3-c3ccc(C#N)c(F)c3)c(F)cc21 (single isomer, unassigned)
upper level

Quick check: band for CC(C)(O)Cn1nnc2cc(-c3ccc(C(=O)N4[C@@H]5CC[C@H]4[C@@H](N)C5)cc3-c3ccc(C#N)c(F)c3)c(F)c(C#N)c21 (single isomer, unassigned)
middle level

Quick check: band for CC(C)(O)CC1OCc2cc(-c3ccc(C(=O)N4[C@@H]5CC[C@H]4[C@@H](N)C5)cc3-c3ccc(C#N)c(F)c3)c(F)cc21 (single isomer, unassigned)
upper level

Quick check: band for CC(C)(O)CCn1ncc2cc(-c3ccc(C(=O)N4C5CCC4CC(N)C5)cc3-c3ccc(C#N)c(F)c3)c(F)cc21 (stereo not drawn)
upper level

Quick check: band for CC(C)(O)Cn1ncc2cc(-c3ccc(C(=O)N4C5CCC4CC(N)C5)cc3-c3ccc(C#N)c(F)c3)c(F)cc21 (stereo not drawn)
upper level

Quick check: band for CN(C)C(=O)c1cn(C)c2cc(F)c(-c3ccc(C(=O)N4[C@@H]5CC[C@H]4[C@@H](N)C5)cc3-c3ccc(C#N)c(F)c3)cc12 (single isomer, unassigned)
upper level

Quick check: band for CC(C)(O)Cn1nnc2cc(-c3ccc(C(=O)N4[C@@H]5CC[C@H]4[C@@H](N)C5)cc3-c3ccc(C#N)c(F)c3)c(F)c(C(F)F)c21 (single isomer, unassigned)
middle level

Quick check: band for Cc1c(F)c(-c2ccc(C(=O)N3C4CCC3CC(N)C4)cc2-c2ccc(C#N)c(F)c2)cc2nnn(CC(C)(C)O)c12 (stereo not drawn)
middle level

Quick check: band for N#Cc1ccc(-c2cc(CN3[C@@H]4CC[C@H]3[C@@H](N)C4)ccc2-c2cc3nnn(CC4(O)CCC4)c3c(Cl)c2F)cc1F (single isomer, unassigned) [Example 286, dihydrochloride]
lower level

Quick check: band for CC(C)(O)Cn1nnc2cc(-c3ccc(C(=O)N4[C@H]5CC[C@@H]4[C@H](N)C5)cc3-c3ccc(C#N)c(F)c3)c(F)c(C3CC3)c21 (single isomer, unassigned)
middle level

Quick check: band for CC(C)(O)Cc1ccc(-c2ccc(CN3[C@@H]4CC[C@H]3[C@@H](N)C4)cc2-c2ccc(C#N)c(F)c2)c(F)c1 (single isomer, unassigned) [Example 290, dihydrochloride]
middle level

Quick check: band for CCC(O)(CC)Cn1ncc2cc(-c3ccc(C(=O)N4C5CCC4CC(N)C5)cc3-c3ccc(C#N)c(F)c3)c(F)cc21 (stereo not drawn)
upper level

Quick check: band for CCC(O)(CC)Cn1nnc2cc(-c3ccc(CN4[C@@H]5CC[C@H]4[C@@H](N)C5)cc3-c3ccc(C#N)c(F)c3)c(F)c(Cl)c21 (single isomer, unassigned) [Example 288, dihydrochloride]
lower level

Quick check: band for N#Cc1ccc(-c2cc(C(=O)N3[C@@H]4CC[C@H]3[C@@H](N)C4)ccc2-c2cc3nnn(CC4(O)CCC4)c3c(F)c2F)cc1F (single isomer, unassigned)
lower level

Quick check: band for Cc1noc2cc(-c3ccc(C(=O)N4[C@@H]5CC[C@H]4[C@@H](N)C5)cc3-c3ccc(C#N)c(F)c3)c(F)cc12 (single isomer, unassigned)
middle level

Quick check: band for N#Cc1ccc(-c2cc(C(=O)N3[C@@H]4CC[C@H]3[C@@H](N)C4)ccc2-c2cc3nnn(CC4(O)CCC4)c3c(C(F)F)c2F)cc1F (single isomer, unassigned)
lower level

====

- Tested on: NCI-H1417 cells (human small-cell lung cancer cell lines)
- protocol details: Cell-growth inhibition test: NCI-H1417 cells
- Assay type: cell-based
- conditions: read-out: IC50 (nM), Cell-Growth Inhibition Test: NCI-H1417 Cells
Record form. Attribute: IC50. Fill in for each entry.
Respond numerically; units are nM and should not be typed.

Please fill in: IC50 reported for Cn1cc(C(N)=O)c2cc(-c3ccc(C(=O)N4[C@@H]5CC[C@H]4[C@@H](N)C5)cc3-c3ccc(C#N)c(F)c3)c(F)cc21 (single isomer, unassigned) = 11

Please fill in: IC50 reported for CNC(=O)c1cn(C)c2cc(F)c(-c3ccc(C(=O)N4[C@@H]5CC[C@H]4[C@@H](N)C5)cc3-c3ccc(C#N)c(F)c3)cc12 (single isomer, unassigned) = 6.63

Please fill in: IC50 reported for N#Cc1ccc(-c2cc(C(=O)N3C4CCC3CC(N)C4)ccc2-c2cc3nnn(CC4(O)CCC4)c3c(C(F)F)c2F)cc1F (stereo not drawn) = 0.7

Please fill in: IC50 reported for CC(C)(O)Cn1ccc2cc(-c3ccc(C(=O)N4C5CCC4CC(N)C5)cc3-c3ccc(C#N)c(F)c3)c(F)c(F)c21 (stereo not drawn) = 1.01

Please fill in: IC50 reported for N#Cc1ccc(-c2cc(C(=O)N3[C@@H]4CC[C@H]3[C@@H](N)C4)ccc2-c2cc3nnn(CC4(O)CCC4)c3c(C#N)c2F)cc1F (single isomer, unassigned) = 0.3

Please fill in: IC50 reported for N#Cc1ccc(-c2cc(C(=O)N3C4CCC3CC(N)C4)ccc2-c2cc3nnn(CC4(O)CCC4)c3c(C#N)c2F)cc1F (stereo not drawn) = 1.85

====

Record form. Attribute: IC50. Fill in for each entry.
- Tested on: NCI-H1417 cells (human small-cell lung cancer cell lines)
- protocol details: Cell-growth inhibition test: NCI-H1417 cells
- Assay type: cell-based
- conditions: NCI-H1417 cells; read-out: IC50 (nM), Cell-Growth Inhibition Test: NCI-H1417 Cells
Give the number first and the unit second.

Please fill in: IC50 reported for COCCc1ccc(-c2ccc(C(=O)N3C4CCC3CC(NC(C)C)C4)cc2-c2ccc(C#N)c(F)c2)c(F)c1 (stereo not shown) = 20.5 nM

Please fill in: IC50 reported for Cn1cnc2cc(-c3ccc(C(=O)N4C5CCC4CC(N)C5)cc3-c3ccc(C#N)c(F)c3)c(F)cc21 (stereo not shown) [Example 130] = 8.25 nM

Please fill in: IC50 reported for Cn1cnc2cc(-c3ccc(C(=O)N4C5CCC4CC(N)C5)cc3-c3ccc(C#N)c(F)c3)c(F)cc21 (stereo not shown) [Example 108] = 3.99 nM

Please fill in: IC50 reported for Cn1ccc2cc(-c3ccc(C(=O)N4C5CCC4CC(N)C5)cc3-c3ccc(C#N)c(F)c3)c(F)cc21 (stereo not shown) = 3.57 nM

Please fill in: IC50 reported for Cn1ccc2cc(-c3ccc(C(=O)N4C5CCC4CC(N)C5)cc3-c3ccc(C#N)c(F)c3)ccc21 (stereo not shown) = 4.73 nM

Please fill in: IC50 reported for Cc1ccc(-c2ccc(C(=O)N3C4CCC3CC(N)C4)cc2-c2ccc(C#N)cc2)cc1 (stereo not shown) = 26 nM

Please fill in: IC50 reported for CC(C)(O)Cc1ccc(-c2ccc(C(=O)N3C4CCC3CC(N)C4)cc2-c2ccc(C#N)c(F)c2)c(F)c1 (stereo not shown) = 4.4 nM

Please fill in: IC50 reported for Cn1c(=O)sc2cc(-c3ccc(C(=O)N4C5CCC4CC(N)C5)cc3-c3ccc(C#N)c(F)c3)ccc21 (stereo not shown) = 17.9 nM

Please fill in: IC50 reported for Cn1nnc2cc(-c3ccc(C(=O)N4C5CCC4CC(N)C5)cc3-c3ccc(C#N)c(F)c3)c(F)cc21 (stereo not shown) = 8.43 nM

Please fill in: IC50 reported for N#Cc1ccc(-c2cc(C(=O)N3C4CCC3CC(N)C4)ccc2-c2ccc3cccnc3c2)cc1F (stereo not shown) = 18.2 nM
